Data credit: ChEMBL document CHEMBL3217453

biological target: Adenosine receptor A1 (Homo sapiens, UniProt P30542); assay: Antagonist activity at human adenosine A1 receptor expressed in CHO-K1 cells preincubated for 15 mins before r-PIA addition measured after 5.5 to 6 hrs by beta-galactosidase reporter gene assay
pKi: −log10 of the molar value.
Kindly return True if reported pKi is no lower than 6; return False if it is lower.

compound.string	assigned.category
CS(=O)(=O)c1cccc(-c2nc(N)c3cc(CN4CCC(F)CC4)sc3n2)c1	False
Nc1nc(-c2cccc(C(F)(F)F)c2)nc2sc(CN3CCC(F)CC3)cc12	False
Nc1nc(-c2ccc(C(F)(F)F)cc2)nc2sc(CN3CCC(F)CC3)cc12	False
Nc1nc(-c2ncco2)nc2sc(CN3CC=CC3)cc12	False
CC(C)c1ccc(-c2nc(N)c3cc(CN4[C@H](C)CCC[C@@H]4C)sc3n2)o1	True
Nc1nc(-c2ccco2)nc2sc(CN3CCSCC3)cc12	True
Nc1nc(-c2cccs2)nc2sc(CN3CCCC3)cc12	False

====

target: Adenosine receptor A1 (Homo sapiens, UniProt P30542); test: Antagonist activity at human adenosine A1 receptor expressed in CHO-K1 cells preincubated for 15 mins before r-PIA addition measured after 5.5 to 6 hrs by beta-galactosidase reporter gene assay
pKi: −log10 of the molar value.
Please note: class 1 applies when pKi is 6 or greater, and class 0 applies otherwise.

compound.string	assigned.category
Nc1nc(-c2ccc(Cl)o2)nc2sc(CN3CCOCC3)cc12	class 1
Nc1nc(-c2ccccc2)nc2sc(CN3CCOCC3)cc12	class 0
Nc1nc(-c2ncco2)nc2sc(CN3CC=CCC3)cc12	class 0
Nc1nc(-c2ccc(C3CC3)o2)nc2sc(CN3CCOCC3)cc12	class 0
Nc1nc(-c2ccco2)nc2sc(CN3CC=CCC3)cc12	class 1
Nc1nc(-c2cccc(C(F)(F)F)c2)nc2sc(CN3CC=CC3)cc12	class 0
Nc1nc(-c2cccc([N+](=O)[O-])c2)nc2sc(CN3CCC(F)CC3)cc12	class 0
CCc1ccc(-c2nc(N)c3cc(CN4[C@H](C)CCC[C@@H]4C)sc3n2)o1	class 1
Nc1nc(-c2ccccc2C(F)(F)F)nc2sc(CN3CCC(F)CC3)cc12	class 0
Nc1nc(-c2ccco2)nc2sc(CN3CCCC(F)(F)C3)cc12	class 1
Nc1nc(-c2ccc(Cl)o2)nc2sc(CN3CCC(F)(F)C3)cc12	class 1
CN(C)C(=O)c1cccc(-c2nc(N)c3cc(CN4CCC(F)CC4)sc3n2)c1	class 0
Nc1nc(-c2ccc(Cl)o2)nc2sc(CN3CC=CCC3)cc12	class 1
Nc1nc(-c2ccc(Cl)o2)nc2sc(CN3CCCC(F)(F)C3)cc12	class 1
Nc1nc(-c2ccco2)nc2sc(CN3CC=CC3)cc12	class 1
Nc1nc(-c2ccco2)nc2sc(CN3CCOCC3)cc12	class 0
C[C@@H]1CCC[C@H](C)N1Cc1cc2c(N)nc(-c3ccc(Br)o3)nc2s1	class 1

====

target: UniProtKB P29274; experiment: Antagonist activity at human adenosine A2A receptor expressed in CHO-K1 cells preincubated for 15 mins before NECA addition measured after 5.5 to 6 hrs by beta-galactosidase reporter gene assay
pKi: −log10 of the molar value.

compound	measured.on	relation	pKi
Nc1nc(-c2ccc(Cl)o2)nc2sc(CN3CCC(F)(F)C3)cc12	UniProtKB P29274	=	7.80
Nc1nc(-c2ccccc2C(F)(F)F)nc2sc(CN3CCC(F)CC3)cc12	UniProtKB P29274	<	5.00
CC(C)c1ccc(-c2nc(N)c3cc(CN4[C@H](C)CCC[C@@H]4C)sc3n2)o1	UniProtKB P29274	=	7.77
N#Cc1cccc(-c2nc(N)c3cc(CN4CCSCC4)sc3n2)c1	UniProtKB P29274	=	7.29
Nc1nc(-c2ccc(Br)o2)nc2sc(CN3CCCC3)cc12	UniProtKB P29274	=	7.65
CC(C)c1ccc(-c2nc(N)c3cc(CN4CCOCC4)sc3n2)o1	UniProtKB P29274	<	5.87
Cc1ccc(-c2nc(N)c3cc(CN4CCCCC4)sc3n2)o1	UniProtKB P29274	=	7.54
N#Cc1ccc(-c2nc(N)c3cc(CN4CCC(F)CC4)sc3n2)cc1	UniProtKB P29274	=	6.41
Nc1nc(-c2ccccc2)nc2sc(CN3CCOCC3)cc12	UniProtKB P29274	=	6.00
Nc1nc(-c2ncco2)nc2sc(CN3CC=CC3)cc12	UniProtKB P29274	=	6.62
Nc1nc(-c2ccc(Cl)o2)nc2sc(CN3CC=CC3)cc12	UniProtKB P29274	=	8.00
Nc1nc(-c2cccc(C(F)(F)F)c2)nc2sc(CN3CCC(F)CC3)cc12	UniProtKB P29274	<	5.00
Nc1nc(-c2ccco2)nc2sc(CN3CCC(F)C3)cc12 (centres undefined)	UniProtKB P29274	=	7.99
Nc1nc(-c2ccc(Cl)o2)nc2sc(CN3CC=CCC3)cc12	UniProtKB P29274	=	7.96
Nc1nc(-c2ccco2)nc2sc(CNC3CCCCC3)cc12	UniProtKB P29274	=	6.77
Nc1nc(-c2ccco2)nc2sc(CN3CC=CCC3)cc12	UniProtKB P29274	=	8.19
Nc1nc(-c2ccco2)nc2sc(CN3CCC(F)CC3)cc12	UniProtKB P29274	=	7.71
C[C@@H]1CCC[C@H](C)N1Cc1cc2c(N)nc(-c3ccc(C(F)F)o3)nc2s1	UniProtKB P29274	=	7.54
Nc1nc(-c2cccc(F)c2)nc2sc(CN3CCOCC3)cc12	UniProtKB P29274	=	6.96
Nc1nc(-c2ncco2)nc2sc(CN3CC=CCC3)cc12	UniProtKB P29274	=	6.62
CS(=O)(=O)c1cccc(-c2nc(N)c3cc(CN4CCC(F)CC4)sc3n2)c1	UniProtKB P29274	<	5.00
N#Cc1ccc(-c2nc(N)c3cc(CN4CC=CCC4)sc3n2)cc1	UniProtKB P29274	=	6.74
Nc1nc(-c2ccco2)nc2sc(CN3CCCCCC3)cc12	UniProtKB P29274	=	7.56
CCc1ccc(-c2nc(N)c3cc(CN4[C@H](C)CCC[C@@H]4C)sc3n2)o1	UniProtKB P29274	=	7.60

====

Consider the following compounds and their measured pKi readings.
target: Adenosine receptor A2a (Homo sapiens, UniProt P29274); experiment: Antagonist activity at human adenosine A2A receptor expressed in CHO-K1 cells preincubated for 15 mins before NECA addition measured after 5.5 to 6 hrs by beta-galactosidase reporter gene assay
Sequence (P29274 whole entry): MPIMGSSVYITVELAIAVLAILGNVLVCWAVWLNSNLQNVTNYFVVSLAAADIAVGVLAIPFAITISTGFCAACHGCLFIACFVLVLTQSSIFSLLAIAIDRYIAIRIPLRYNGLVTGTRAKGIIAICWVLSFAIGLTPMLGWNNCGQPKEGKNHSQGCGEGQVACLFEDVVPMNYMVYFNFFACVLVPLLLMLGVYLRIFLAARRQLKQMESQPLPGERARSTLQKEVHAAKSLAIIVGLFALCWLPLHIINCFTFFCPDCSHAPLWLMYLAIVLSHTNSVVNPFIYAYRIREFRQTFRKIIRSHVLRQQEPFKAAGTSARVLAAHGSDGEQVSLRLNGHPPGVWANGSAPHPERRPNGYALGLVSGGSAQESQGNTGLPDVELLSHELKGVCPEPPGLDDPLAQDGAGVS
pKi: −log10 of the molar value.
quantity.measured: pKi

compound.string	quantity.measured	relation	value.observed
Nc1nc(-c2ccc(Cl)o2)nc2sc(CN3CCCC(F)(F)C3)cc12	pKi	=	8.04
Nc1nc(-c2ccc(C(F)(F)F)cc2)nc2sc(CN3CCC(F)CC3)cc12	pKi	<	5.00
Nc1nc(-c2cccs2)nc2sc(CN3CCOCC3)cc12	pKi	=	6.90
N#Cc1cccc(-c2nc(N)c3cc(CN4CCCC4)sc3n2)c1	pKi	<	5.00
Nc1nc(-c2ccc(Br)o2)nc2sc(CN3CCOCC3)cc12	pKi	=	7.52
Nc1nc(-c2ccco2)nc2sc(CN3CC=CC3)cc12	pKi	=	8.14
Nc1nc(-c2cccc(Cl)c2)nc2sc(CN3CCOCC3)cc12	pKi	=	6.92

====

molecular target: Adenosine receptor A1 (Homo sapiens, UniProt P30542); test: Antagonist activity at human adenosine A1 receptor expressed in CHO-K1 cells preincubated for 15 mins before r-PIA addition measured after 5.5 to 6 hrs by beta-galactosidase reporter gene assay
pKi: −log10 of the molar value.
Items are presented alongside their recorded pKi.

compound.string	relation	pKi
CCc1ccc(-c2nc(N)c3cc(CN4CCOCC4)sc3n2)o1	<	6.21
N#Cc1cccc(-c2nc(N)c3cc(CN4CCSCC4)sc3n2)c1	=	6.01
Nc1nc(-c2ccc(Br)o2)nc2sc(CN3CCOCC3)cc12	=	6.14

====

Recorded Ki values for a group of molecules are listed next.
Target: Adenosine receptor A1 (Homo sapiens)
Sequence (P30542 whole entry): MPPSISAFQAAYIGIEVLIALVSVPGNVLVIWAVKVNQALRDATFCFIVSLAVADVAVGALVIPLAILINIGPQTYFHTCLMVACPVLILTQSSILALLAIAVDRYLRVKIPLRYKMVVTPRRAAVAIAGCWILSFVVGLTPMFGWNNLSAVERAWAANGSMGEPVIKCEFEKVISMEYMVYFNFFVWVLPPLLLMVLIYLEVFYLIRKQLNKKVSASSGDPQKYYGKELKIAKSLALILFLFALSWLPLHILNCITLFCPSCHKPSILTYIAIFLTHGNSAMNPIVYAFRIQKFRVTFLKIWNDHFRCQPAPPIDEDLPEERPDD
Experiment: Antagonist activity at human adenosine A1 receptor expressed in CHO-K1 cells preincubated for 15 mins before r-PIA addition measured after 5.5 to 6 hrs by beta-galactosidase reporter gene assay
quantity.measured: Ki

compound.string	value.observed
Nc1nc(-c2ccco2)nc2sc(CN3CCCCCC3)cc12	1170 nM
Nc1nc(-c2ccc(Br)o2)nc2sc(CN3CCCC3)cc12	710 nM
Cc1csc(-c2nc(N)c3cc(CN4CCOCC4)sc3n2)n1	> 930 nM
CC(C)c1ccc(-c2nc(N)c3cc(CN4CCOCC4)sc3n2)o1	> 600 nM
N#Cc1cccc(-c2nc(N)c3cc(CN4CCCC(F)(F)C4)sc3n2)c1	840 nM
Nc1nc(-c2cccs2)nc2sc(CN3CCOCC3)cc12	1020 nM
